# assay-procedure: qHTS assay to identify small molecule HDAC inhibitors (AID 1259364);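 note: wild-type HCT-116 cells with endogenous class I/II HDAC activity; top concentration of the series differs between compounds; % is set by controls: 0 for no effect and ±100 for the full control effect; nearly all actives have a fitted effect of over 45% in size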
# applied-conditions: HCT-116 HDAC-Glo I/II luminescence, 2 h; series mostly up to 92.4 µM
Records with an inconclusive call do not appear. Active and inactive are the calls of the source. Calls come from the whole dose curve; as a rule, active = well fitted inhibition curve with a large enough effect in the repeat runs; inconclusive = weak or mixed curves; inactive = flat fitted curve, though single readings scatter.
quantity-measured: activity change, negative = inhibition

[
  {
    "compound": "C=C1C(=C/C=C2\\CCC[C@]3(C)[C@@H]([C@H](C)/C=C/[C@@H](O)C4CC4)CC[C@@H]23)C[C@@H](O)C[C@@H]1O",
    "recorded-measurement": "inactive"
  },
  {
    "compound": "CC(=O)NO",
    "recorded-measurement": "inactive"
  },
  {
    "compound": "S=C([S-])NCCNC(=S)[S-].[Mn+2]",
    "recorded-measurement": "inactive"
  },
  {
    "compound": "NCC(=O)O",
    "recorded-measurement": "-0.526% [at 19 µM] (inactive)"
  },
  {
    "compound": "C=CC(=O)OCCOCCOC(=O)C=C",
    "recorded-measurement": "inactive"
  },
  {
    "compound": "CCCCCCCCCCCCCCCCOS(=O)(=O)O",
    "recorded-measurement": "inactive"
  },
  {
    "compound": "CCN(CC)CCNc1ccc(CNC=O)c2sc3ccc(OC)cc3c(=O)c12",
    "recorded-measurement": "inactive"
  },
  {
    "compound": "Cc1ccc(C(=O)Oc2ccc(C(O)CNC(C)(C)C)cc2OC(=O)c2ccc(C)cc2)cc1 (stereo not given)",
    "recorded-measurement": "inactive"
  },
  {
    "compound": "CC(=O)[O][Al]",
    "recorded-measurement": "inactive"
  },
  {
    "compound": "C[N+]1(C)CCC(OC(=O)C(O)(c2ccccc2)C2CCCC2)C1 (stereo not given)",
    "recorded-measurement": "inactive"
  }
]

----------
# experimental-system: Cytochrome P450 2D6 (Homo sapiens) (UniProt P10635)
# Sequence (P10635 whole entry, looked up): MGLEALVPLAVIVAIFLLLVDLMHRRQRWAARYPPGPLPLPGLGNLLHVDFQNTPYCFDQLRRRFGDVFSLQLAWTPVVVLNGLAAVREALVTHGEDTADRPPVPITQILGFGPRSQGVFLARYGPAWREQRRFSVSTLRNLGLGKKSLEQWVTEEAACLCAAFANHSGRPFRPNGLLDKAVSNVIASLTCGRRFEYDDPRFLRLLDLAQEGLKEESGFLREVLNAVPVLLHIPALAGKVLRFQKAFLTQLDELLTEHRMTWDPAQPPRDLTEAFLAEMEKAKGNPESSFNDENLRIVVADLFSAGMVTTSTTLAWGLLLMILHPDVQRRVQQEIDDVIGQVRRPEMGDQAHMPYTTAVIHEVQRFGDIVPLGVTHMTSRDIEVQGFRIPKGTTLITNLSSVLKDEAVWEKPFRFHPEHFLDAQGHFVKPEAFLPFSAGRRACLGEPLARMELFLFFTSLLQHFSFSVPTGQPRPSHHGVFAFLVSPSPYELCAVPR
# assay-procedure: Cytochrome P450 Family 2 Subfamily D Member 6 (CYP2D6) small molecule antagonists: luciferase reporter qHTS assay (AID 1671196); note: nearly all actives have a fitted effect of over 50% in size
# applied-conditions: P450-Glo CYP2D6 enzyme assay, luciferin luminescence, 1 h; series mostly up to 115 µM
Inconclusive results are not listed. Activity calls are given as the source filed them. The call rests on the fitted dose curve; in most records, active means well fitted inhibition curve with a large enough effect in the repeat runs; inconclusive means weak or mixed curves; inactive means no such curve, though single readings can be large or run the other way.
Outcomes: class 1 for active, class 0 for inactive

[
  {
    "compound": "CN(Cc1ccc(C(C)(C)C)cc1)Cc1cccc2ccccc12",
    "classification": "class 1"
  },
  {
    "compound": "C1CCCNCCC1",
    "classification": "class 0"
  },
  {
    "compound": "Cc1oc2c(NC(=O)c3c(Cl)cccc3Cl)cccc2c1C(C)(C)O",
    "classification": "class 0"
  },
  {
    "compound": "CCCCC(CC)COC(=O)CCCCCCCCC(=O)OCC(CC)CCCC (centres undefined)",
    "classification": "class 0"
  },
  {
    "compound": "CCN(CC)c1ccc2c(-c3ccccc3C(=O)O)c3ccc(=[N+](CC)CC)cc-3oc2c1",
    "classification": "class 1"
  },
  {
    "compound": "CC1=CC[C@H](C(C)C)C=C1",
    "classification": "class 1"
  },
  {
    "compound": "COC(C)(C)CCO",
    "classification": "class 0"
  },
  {
    "compound": "CCCCCCCCCCO[C@@H]1O[C@H](CO)[C@@H](O)[C@H](O)[C@H]1O",
    "classification": "class 0"
  },
  {
    "compound": "Nc1cccc(S(=O)(=O)c2cccc(N)c2)c1",
    "classification": "class 0"
  },
  {
    "compound": "CCc1c(C(=O)NN2CCCCC2)nn(-c2ccc(Cl)cc2Cl)c1-c1ccc(Br)cc1",
    "classification": "class 0"
  },
  {
    "compound": "NS(=O)(=O)c1ccc(N2CCCCS2(=O)=O)cc1",
    "classification": "class 0"
  },
  {
    "compound": "C=C(C)C(=O)OCCOCC",
    "classification": "class 1"
  },
  {
    "compound": "CCCCC1=NC2(CCCC2)C(=O)N1Cc1ccc(-c2ccccc2-c2nn[nH]n2)cc1",
    "classification": "class 0"
  },
  {
    "compound": "CC(C)(CO)[N+](=O)[O-]",
    "classification": "class 0"
  }
]
